# tested.system: LHRH receptor (Rattus norvegicus, UniProt P30969)
# Construct: endogenous in cells
# Sequence (P30969 1-327): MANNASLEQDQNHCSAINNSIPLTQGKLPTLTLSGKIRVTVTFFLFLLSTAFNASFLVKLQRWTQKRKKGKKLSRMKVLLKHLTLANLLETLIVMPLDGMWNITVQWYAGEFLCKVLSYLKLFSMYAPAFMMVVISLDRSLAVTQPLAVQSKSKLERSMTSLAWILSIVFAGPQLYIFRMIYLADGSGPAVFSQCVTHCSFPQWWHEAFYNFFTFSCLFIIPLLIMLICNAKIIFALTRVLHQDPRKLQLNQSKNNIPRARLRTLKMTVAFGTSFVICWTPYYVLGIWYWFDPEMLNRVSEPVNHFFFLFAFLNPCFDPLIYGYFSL
# experiment.summary: in vitro LHRH antagonist potency (pA2) against the agonist leuprolide
# Type: cell-based
# protocol.conditions: negative logarithm of the antagonist concentration which shifts the response curve produced by the agonist leuprolide to two-fold higher concentration
Where a SMILES comes first, the peptide text is derived from it. Side-chain parts run from the residue outwards. [ ]: non-standard residue; d: D form. The star is where a group is joined. Shikimoyl = O=C(C1=C[C@@H](O)[C@@H](O)[C@H](O)C1)*; dPhe(4-Cl) = N[C@H](Cc1ccc(Cl)cc1)C(=O)O; d2Nal = N[C@H](Cc1ccc2ccccc2c1)C(=O)O; NMeY = CN[C@@H](Cc1ccc(O)cc1)C(=O)O; d3Pal = N[C@H](Cc1cccnc1)C(=O)O
endpoint.name: Kb (pM)
Express your answer in pM, writing the number without its unit.

## Input Please report the recorded Kb for CC(=O)N[C@H](Cc1ccc2ccccc2c1)C(=O)N[C@H](Cc1ccc(Cl)cc1)C(=O)N[C@H](Cc1cccnc1)C(=O)N[C@@H](CO)C(=O)N(C)[C@@H](Cc1ccc(O)cc1)C(=O)N[C@H](CCCCNC(=O)[C@H](NC(=O)C1=C[C@@H](O)[C@@H](O)[C@H](O)C1)[C@H](C)O)C(=O)N[C@@H](CC(C)C)C(=O)N[C@@H](CCCNC(=N)N)C(=O)N1CCC[C@H]1C(=O)N[C@H](C)C(N)=O [Example 48c] (Ac-[d2Nal][dPhe(4-Cl)][d3Pal]S[NMeY][dK]([dT-Shikimoyl])LRP[dA]-NH2) .
## Output 28.8
